test system: Mycobacterium tuberculosis; test: Antimycobacterial activity against Mycobacterium tuberculosis H37Rv assessed as reduction in bacterial growth incubated for 2 weeks in 7H9/glucose media by 2-fold serial dilution method; assay type: functional; details: 336 h
observable: MIC (µM)
Dear colleague, please return just the value in µM, with no unit written.

A selection of reference data follows.
COc1ccc(S(=O)(=O)N2CCCCCC2)cc1NC(=O)Cc1coc2ccccc12 9.4
COc1ccc(S(=O)(=O)N2CCCCCC2)cc1NC(=O)CCc1c[nH]c2ccccc12 25
COc1ccc(S(=O)(=O)N2CCCCCC2)cc1NC(=O)Cc1c[nH]c2ccccc12 100

// switching to the query compound
So what's the measured MIC for this one? `COc1ccc(S(=O)(=O)N2CCCCCCC2)cc1NC(=O)Cc1n[nH]c(=O)c2ccccc12`
25
